Collected inhibition at 10 µM values appear next to each entry.
Biological target: α-chymotrypsin (Bos taurus, UniProt P00766)
Construct: purchased Sigma Chem. Co. C-3142
Test: Inhibition of α-chymotrypsin
Format: biochemical
Settings: Table III; 10 uM; read-out: Chymotrypsin % I @ 10 uM
Square brackets hold non-standard residues; d marks the D form. Peptide text beside a SMILES is read from it. * marks the point of attachment. ξ: configuration not given here. d(αMeF) = C[C@@](N)(Cc1ccccc1)C(=O)O; ξF = NC(Cc1ccccc1)C(=O)O; Bn = c1ccc(C*)cc1; Ms = CS(=O)(=O)*
metric: inhibition at 10 µM (%)

1) CS(=O)(=O)N[C@H](Cc1ccc(OCc2ccccc2)cc1)C(=O)N[C@H](C=O)Cc1ccccc1 [Compound 89] (Ms-[dY](Bn)-Phe-aldehyde): 4
2) Cc1nn(C)c(Cl)c1S(=O)(=O)N[C@H](COCc1ccccc1)C(=O)N[C@H](C=O)Cc1ccccc1 [Compound 91]: 53
3) C[C@](Cc1ccccc1)(NS(C)(=O)=O)C(=O)NC(C=O)Cc1ccccc1 (stereo partly shown) [Compound 105] (Ms-[d(αMeF)]-[ξF]-aldehyde): 10
4) CS(=O)(=O)N[C@H](CS(=O)(=O)Cc1ccccc1)C(=O)N[C@H](C=O)Cc1ccccc1 [Compound 80]: 8
5) CS(=O)(=O)N[C@H](COCc1ccccc1)C(=O)N[C@H](C=O)CCCCNC(=O)OCc1ccccc1 [Compound 92]: 0
6) CCS(=O)(=O)N[C@H](Cc1ccccc1)C(=O)N[C@H](C=O)Cc1ccccc1 [Compound 60]: 0
7) CS(=O)(=O)N[C@H](COCc1ccccc1)C(=O)N[C@H](C=O)Cc1ccc(OCc2ccccc2)cc1 [Compound 90] (Ms-[dS](Bn)-Tyr(Bn)-aldehyde): 0
